# test.target: T1, human programmed cell death protein 1 (hPD-1) C93S (aa 24-167) (Homo sapiens, UniProt Q15116, C93S)
# T1 construct: made as a fusion with a TEV site and human Fc; the Fc was cut off with TEV protease; source: Expi293F, purified (Protein A, TEV cleavage of Fc, SEC; monomer fractions); not shown: Fc (human), C-terminal, cleaved
# T1 sequence (Q15116 24-167 C93S): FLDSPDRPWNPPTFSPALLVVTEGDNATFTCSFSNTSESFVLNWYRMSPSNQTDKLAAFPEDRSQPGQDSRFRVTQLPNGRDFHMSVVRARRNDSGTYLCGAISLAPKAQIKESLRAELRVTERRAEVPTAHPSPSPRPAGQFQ
# assay.comment: SPR; Carterra LSA; Fab from the ammonium sulfate precipitate of the culture supernatant immobilised on a NiHC200M chip; hPD-1 (1-1024 nM) or mPD-1-Fc (4-1024 nM) as analyte, fourfold dilution series, no regeneration; HBS-EP pH 7.4, 25 °C; medians over the spots of a construct, KD = koff/kon
# assay.setup: one partner purified
pKd: −log10 of the molar value.
attribute.measured: pKd

>  <binder>
toripalimab Fab H.D31Y (Fab, V domains shown, heavy chain of Sm3 with this change; numbers count from the chain's first residue; as the light chain of Sm3; source: Brevibacillus, culture supernatant (ammonium sulfate precipitate); not shown: 6xHis, C-terminal, kept; 6xHN, C-terminal, kept) VH: QGQLVQSGAEVKKPGASVKVSCKASGYTFTYYEMHWVRQAPIHGLEWIGVIESETGGTAYNQKFKGRVTITADKSTSTAYMELSSLRSEDTAVYYCAREGITTVATTYYWYFDVWGQGTTVTVSS VL: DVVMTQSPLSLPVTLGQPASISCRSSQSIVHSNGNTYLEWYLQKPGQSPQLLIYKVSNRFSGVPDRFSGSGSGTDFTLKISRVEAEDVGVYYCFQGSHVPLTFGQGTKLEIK

>  <attribute.measured>
pKd

>  <result>
> 9.46

$$$$
>  <binder>
toripalimab Fab H.N61A (Fab, V domains shown, heavy chain of Sm3 with this change; numbers count from the chain's first residue; as the light chain of Sm3; source: Brevibacillus, culture supernatant (ammonium sulfate precipitate); not shown: 6xHis, C-terminal, kept; 6xHN, C-terminal, kept) VH: QGQLVQSGAEVKKPGASVKVSCKASGYTFTDYEMHWVRQAPIHGLEWIGVIESETGGTAYAQKFKGRVTITADKSTSTAYMELSSLRSEDTAVYYCAREGITTVATTYYWYFDVWGQGTTVTVSS VL: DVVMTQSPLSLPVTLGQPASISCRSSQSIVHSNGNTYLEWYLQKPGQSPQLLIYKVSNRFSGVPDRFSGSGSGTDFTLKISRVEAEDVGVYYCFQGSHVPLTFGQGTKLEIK

>  <attribute.measured>
pKd

>  <result>
> 9.45

$$$$
>  <binder>
toripalimab Fab H.T107Y (Fab, V domains shown, heavy chain of Sm3 with this change; numbers count from the chain's first residue; as the light chain of Sm3; source: Brevibacillus, culture supernatant (ammonium sulfate precipitate); not shown: 6xHis, C-terminal, kept; 6xHN, C-terminal, kept) VH: QGQLVQSGAEVKKPGASVKVSCKASGYTFTDYEMHWVRQAPIHGLEWIGVIESETGGTAYNQKFKGRVTITADKSTSTAYMELSSLRSEDTAVYYCAREGITTVATYYYWYFDVWGQGTTVTVSS VL: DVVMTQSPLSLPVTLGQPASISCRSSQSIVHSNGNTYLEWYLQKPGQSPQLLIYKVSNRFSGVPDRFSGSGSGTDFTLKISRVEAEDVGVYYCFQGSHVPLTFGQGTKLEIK

>  <attribute.measured>
pKd

>  <result>
> 9.50

$$$$

The reported numbers originate from paper PMC10663500.
